# ASSAY TARGET: Grb2 SH2 (UniProt P62993)
# Sequence (P62993 whole entry, looked up, the tested form may be a part): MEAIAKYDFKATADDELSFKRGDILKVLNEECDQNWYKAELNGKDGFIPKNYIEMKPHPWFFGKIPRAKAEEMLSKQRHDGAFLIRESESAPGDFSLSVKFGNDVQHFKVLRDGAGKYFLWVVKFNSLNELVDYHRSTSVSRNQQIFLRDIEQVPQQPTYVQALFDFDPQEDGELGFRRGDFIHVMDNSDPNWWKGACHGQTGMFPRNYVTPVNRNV
# ASSAY INFO: SH2 binding enrichment of the phosphorylated peptide, bacterial display (enrichment ratio); higher = better substrate or ligand; peptides without Tyr show the background;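 note: peptide library displayed on the E. coli surface as eCPX fusions, selected cells deep-sequenced, score is each peptide's frequency after selection divided by its frequency in the input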
// No strictly below 1 in SH2 binding enrichment; Yes otherwise

Query block: Record RAFSWYQHQRA [NDST1_Y714_YF] ; criterion: SH2 binding enrichment no lower than 1. Met?
Result block: Yes

Query block: Record LVRPPYSYLAL [FOXI1_Y126_S129L] ; criterion: SH2 binding enrichment no lower than 1. Met?
Result block: Yes

Query block: Record TDIVAYSGWVQ [SPTBN2_Y477_R480W] ; criterion: SH2 binding enrichment no lower than 1. Met?
Result block: No

Query block: Record NGRTGYVLQPE [PLCG2_Y1036] ; criterion: SH2 binding enrichment no lower than 1. Met?
Result block: No

Query block: Record SFDLDYDSVQP [MYC_Y16_N11S_YF] ; criterion: SH2 binding enrichment no lower than 1. Met?
Result block: No

Query block: Record IDNKMYDPKMN [ENPP1_Y280] ; criterion: SH2 binding enrichment no lower than 1. Met?
Result block: Yes

Query block: Record LEIETYRRLLD [KRT12_Y429] ; criterion: SH2 binding enrichment no lower than 1. Met?
Result block: No

Query block: Record DTCPPYVLSQG [GJB4_Y237] ; criterion: SH2 binding enrichment no lower than 1. Met?
Result block: No

Query block: Record EKIANYKEGTY [CLRN1_Y171] ; criterion: SH2 binding enrichment no lower than 1. Met?
Result block: No

Query block: Record MRALTYCDLHK [KCNH2_Y827_V822M] ; criterion: SH2 binding enrichment no lower than 1. Met?
Result block: No

Query block: Record GRSTCYWPRPR [GAGE12J_Y10_Y9C] ; criterion: SH2 binding enrichment no lower than 1. Met?
Result block: Yes

Query block: Record SQINLYQDVML [ZNF806_Y33_A28S] ; criterion: SH2 binding enrichment no lower than 1. Met?
Result block: No

Query block: Record KMKGDYFRFLA [YWHAG_Y130_YF] ; criterion: SH2 binding enrichment no lower than 1. Met?
Result block: Yes

Query block: Record ADLAKYICENQ [ALB_Y287] ; criterion: SH2 binding enrichment no lower than 1. Met?
Result block: No

Query block: Record GVIRHYVVCST [BTK_Y334] ; criterion: SH2 binding enrichment no lower than 1. Met?
Result block: No

Query block: Record `ENAGYYFRISA` ; criterion: SH2 binding enrichment no lower than 1. Met?
Result block: No

Query block: Record SIKDKYVTAVF [KCNH2_Y611_L615V_YF] ; criterion: SH2 binding enrichment no lower than 1. Met?
Result block: No

Query block: Record ACEVLYNIAFM [NCF2_Y125] ; criterion: SH2 binding enrichment no lower than 1. Met?
Result block: No

Query block: Record TYEYKYPEGSS [TGM4_Y440] ; criterion: SH2 binding enrichment no lower than 1. Met?
Result block: No

Query block: Record TPLSAYQIPRT [GAB2_Y324] ; criterion: SH2 binding enrichment no lower than 1. Met?
Result block: Yes

Query block: Record SVTCTYSPALK [TP53_Y126_N131K] ; criterion: SH2 binding enrichment no lower than 1. Met?
Result block: No

Query block: Record HNLPIYEGFAL [ACTA1_Y168_V165L_YF] ; criterion: SH2 binding enrichment no lower than 1. Met?
Result block: No

Query block: Record TGILLYGLASR [QARS1_Y57] ; criterion: SH2 binding enrichment no lower than 1. Met?
Result block: No

Query block: Record MDDKEYYSVHN [MET_Y1234_Y1230D] ; criterion: SH2 binding enrichment no lower than 1. Met?
Result block: No
